Field: IC50. Provide a value for each of the compounds that follow.
- assay procedure: Inhibition of porcine cholesterol esterase using para-nitrophenyl butyrate as substrate preincubated for 5 mins by spectrophotometric analysis
- Parameters: species or system Sus scrofa

Use the examples below as a reference point.
| record smiles | endpoint result |
| --- | --- |
| O=[N+]([O-])c1ccc2nc(-c3cccc(Br)c3)cc(-c3ccccc3)c2c1 | ≥ 20 µM |
| Oc1ccc(-c2cc(-c3ccccc3)c3cc(Cl)ccc3n2)cc1 | ≥ 20 µM |
| Cc1ccc(-c2cc(-c3ccccc3)c3cc([N+](=O)[O-])ccc3n2)cc1 | ≥ 20 µM |
| O=[N+]([O-])c1ccc2nc(-c3ccc(O)cc3)cc(-c3ccccc3)c2c1 | ≥ 20 µM |
| Clc1ccc2nc(-c3ccccc3)cc(-c3ccccc3)c2c1 | ≥ 20 µM |

Each of the following entries comes with a recorded value; kindly state IC50 for each.
1. COc1ccc(-c2cc(-c3ccccc3)c3cc(Cl)ccc3n2)cc1
2. O=[N+]([O-])c1ccc2nc(-c3ccccc3)cc(-c3ccccc3)c2c1
3. Clc1ccc2nc(-c3cccc(Br)c3)cc(-c3ccccc3)c2c1

[reply]
1. ≥ 20 µM
2. ≥ 20 µM
3. ≥ 20 µM

Batch: IC50 for all items listed.
1. Cc1ccc(-c2cc(-c3ccccc3)c3cc(Cl)ccc3n2)cc1
2. Clc1ccc2nc(-c3c[nH]c4ccccc34)cc(-c3ccccc3)c2c1
3. O=[N+]([O-])c1ccc2nc(-c3c[nH]c4ccccc34)cc(-c3ccccc3)c2c1
4. COc1ccc(-c2cc(-c3ccccc3)c3cc([N+](=O)[O-])ccc3n2)cc1

[reply]
≥ 20 µM
1.33 µM
1.98 µM
≥ 20 µM

###

// values below are IC50; system is Acetylcholinesterase (Electrophorus electricus, UniProt O42275)
Sequence (O42275 whole entry): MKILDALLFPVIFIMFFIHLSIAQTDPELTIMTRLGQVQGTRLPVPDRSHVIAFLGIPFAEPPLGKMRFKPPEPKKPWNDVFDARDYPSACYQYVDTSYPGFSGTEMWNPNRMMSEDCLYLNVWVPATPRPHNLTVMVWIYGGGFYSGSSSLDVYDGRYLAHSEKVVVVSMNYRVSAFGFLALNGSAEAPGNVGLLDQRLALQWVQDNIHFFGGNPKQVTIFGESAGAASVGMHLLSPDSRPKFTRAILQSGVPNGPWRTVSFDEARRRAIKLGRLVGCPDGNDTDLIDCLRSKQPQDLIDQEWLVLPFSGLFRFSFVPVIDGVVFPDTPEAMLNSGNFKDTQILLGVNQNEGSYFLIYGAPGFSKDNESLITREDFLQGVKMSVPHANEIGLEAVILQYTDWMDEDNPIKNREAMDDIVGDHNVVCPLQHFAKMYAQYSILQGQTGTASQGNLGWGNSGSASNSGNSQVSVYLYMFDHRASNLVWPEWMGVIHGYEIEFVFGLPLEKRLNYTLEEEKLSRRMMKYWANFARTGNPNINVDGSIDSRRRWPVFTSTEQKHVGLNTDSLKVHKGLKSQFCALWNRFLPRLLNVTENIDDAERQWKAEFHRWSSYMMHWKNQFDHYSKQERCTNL

These recorded examples may help you get a feel for the data.
| record smiles | readout type | endpoint result |
| --- | --- | --- |
| Clc1ccc2nc(-c3c[nH]c4ccccc34)cc(-c3ccccc3)c2c1 | IC50 | ≥ 37 µM |
| O=[N+]([O-])c1ccc2nc(-c3c[nH]c4ccccc34)cc(-c3ccccc3)c2c1 | IC50 | 22.9 µM |

Batch request: IC50 for each of the following compounds.
1. O=[N+]([O-])c1ccc2nc(-c3ccccc3)cc(-c3ccccc3)c2c1
2. COc1ccc(-c2cc(-c3ccccc3)c3cc([N+](=O)[O-])ccc3n2)cc1

[reply]
1: ≥ 37 µM; 2: ≥ 37 µM
